Kindly state CD28 scFv signal for each of the entries shown.
- Experimental target: T1, Anti-CD28 scFv (VH - linker 1 - VL) (biotinylated (site not stated))
- T1 construct: Biotinylated scFv captured on neutravidin coated plates in the panning ELISA
- T1 sequence (scFv, as listed by the source): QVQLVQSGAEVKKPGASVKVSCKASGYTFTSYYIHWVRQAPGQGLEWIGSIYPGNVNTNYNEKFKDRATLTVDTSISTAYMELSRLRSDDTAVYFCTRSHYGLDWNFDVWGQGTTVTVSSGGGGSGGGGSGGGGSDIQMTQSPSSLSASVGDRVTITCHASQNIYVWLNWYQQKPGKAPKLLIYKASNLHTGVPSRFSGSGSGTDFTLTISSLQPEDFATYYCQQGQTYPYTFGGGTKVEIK
- Assay name: phage ELISA; biotinylated anti-CD28 scFv on neutravidin plate, clonal phage supernatant, anti-M13-HRP detection;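 also: before phage addition, wells were pretreated with soluble CD28 protein in blocking buffer, or with blocking buffer only as the comparison, then phage were added without washing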

// known answers, use as guide
>>> print(df.to_string())
                                     binder      measure_name  result
0  MDWCPRYLWTECFS (tested as crude phage supernatant) [Phage-303]  CD28 scFv signal    2.42
1  MDWCPRHLWNECFA (tested as crude phage supernatant) [Phage-306]  CD28 scFv signal    2.39
2  MDWCPRYLWDYCFA (tested as crude phage supernatant) [Phage-280]  CD28 scFv signal    2.71

Switching to the query record.
Request: Quick one: CD28 scFv signal of MDWCPRDLWSVCFS (tested as crude phage supernatant) [Phage-290] ?
Result: 2.5
